Provide the reported IC50, 세포내 유입(internalization) 억제, HEK293E/ACE2-GFP of each item.
- Subject of test: SARS-CoV-2 RBD-hFc (SARS-CoV-2, UniProt P0DTC2 319-541)
- Assay text: cell-based or functional assay
Numbers only, in nM.

1. SA3827 (antibody, V domains shown) VH: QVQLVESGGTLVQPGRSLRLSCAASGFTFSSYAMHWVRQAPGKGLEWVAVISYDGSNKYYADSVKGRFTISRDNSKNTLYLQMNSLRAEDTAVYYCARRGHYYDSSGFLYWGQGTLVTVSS VL: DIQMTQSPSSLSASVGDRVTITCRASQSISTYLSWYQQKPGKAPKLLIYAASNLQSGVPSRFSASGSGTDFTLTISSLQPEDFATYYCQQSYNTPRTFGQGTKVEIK
12.9
2. SA3902 (antibody, V domains shown) VH: QVQLVQSGAEVRQPGASVKVSCKTSGYAFSYYHIHWVRQAPGQGLEWMGLINPGSGGTNYAQKFQGRVTLTRDTSTSTVYMDLTGLRSEDTAVYYCAGSEQPHYYANGAYRVWGQGTLVTVSS VL: DIQMTQSPSTLSASVGDRVTITCRASQSISSYLNWYQQKPGKAPKLLIYEVSTLESGVPSRFSGSRSGTEFTLTISSLQPDDFATYYCQQYDTFGGGTKVEIK
14.9
3. SA3856 (antibody, V domains shown) VH: QMQLVESGGGLIQPGGSLRLSCAASGFTVTSAYMSWVRQAPGKGLEWVSIIYGGGSTYYADSVKGRFTISRDNSKNTLYLQMNSLRAEDTAVYYCTGPYPGRYDYWGRGTLVTVSS VL: DIQMTQSPSSLSASVGDRVIITCRASQDIRTSLAWFQQRLGEAPRSLIYDASSLQNGVPSKFRGSGSGTDFTLTISSLQPEDFATYYCQQYKTVPLTFGGGTKVEIK
11.9

Would you mind listing IC50, 세포내 유입(internalization) 억제, HEK293E/ACE2-GFP for each of the following binders?
1. SA4040 (antibody, V domains shown) VH: EVQLVQSGAEVKKPGASVKVSCKASGYTFTGYYMHWARQAPGQGLEWMGWINPNSGGTNYAQKFQGRVTMTRDTSITTAYMELSRLTSDDTAVYYCARDQAFSMVRGVTDYWGQGTLVTVSS VL: QSALTQPPSASGSPGQSVIISCTGSSSDVGGYNYVAWYQQYPGAAPKLIISEVTKRPSGVPDRFSGSKSGNTASLTISGLQAEDEANYYCSSYAGDNTWIFGGGTKLTVL
2. SA4056 (antibody, V domains shown) VH: QVQLQESGGGLVQPGGSLRLSCAASVITVSSNYMSWVRQAPGKGLEWVSVIYPGGSTYYADSVKGRFTISRDKSKNTLYLQMNSLRAEDTAVYYCARDLDIVGGMDVWGQGTTVTVSS VL: DIQMTQSPSTLSASVGDRVTITCRASQSISRWLAWYQQKPGQAPKLLIYAASTLQSGVPSRFSGSGSGTEFTLTISSLQPDDFATYYCQQYDSYPRTFGQGTKVDIK
3. SA4050 (antibody, V domains shown) VH: QVQLVESGAEVKKPGASVKVSCKASGYTFTGYFIHWVRQAPGQGLEWMGWINPNSGGTNYAQKFQGRVTMTRDTSISTAYMELSRLRSDDTAVYYCARVPHLSGYYYEGVLGYFDYWGQGTLVTVSS VL: QSALTQPASVSGSPGQSITISCTGTSIDIGSYNFVSWYQRHPGKAPRLLIYDVSDRPSGVSNRFSGSKSANTASLTISGLQAEDEADYYCSSYTSSSLWVFGGGTKLTVL
4. SA3838 (antibody, V domains shown) VH: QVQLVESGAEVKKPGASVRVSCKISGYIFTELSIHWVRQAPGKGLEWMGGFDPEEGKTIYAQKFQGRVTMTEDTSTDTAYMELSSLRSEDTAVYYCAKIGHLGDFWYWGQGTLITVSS VL: QSALTQPASVSGSPGQSITISCTGTTSDIGSYDYVSWYQQHPGKAPKLIIYGVTRRPSGVSNRFSGSKSGNTASLTISRLLTEDEAEYYCATYTSSATYVFGTGTKVTVL

Output line:
1: 30.8; 2: 28.1; 3: 36.9; 4: 36.1
